Provenance of the data: the supplement of paper PMC11923942

# measurement description: collision cross section (N2, base ion); higher = larger ion cross section
Task for the reader: assign each of the following compounds its reported collision cross section.
Write the value in Å² as a bare number.

Ask | Look up collision cross section for this compound: Clc1ccc(C(c2ccccc2Cl)C(Cl)(Cl)Cl)cc1 (configuration not stated) [2,4'-DDT] (APCI source condition: Dry, base ion: [M-CCl3]+)
Reply | 140.36

Ask | Lookup c1ccc2cc3c(ccc4ccccc43)cc2c1 [Benzo(a)anthracene] (APCI source condition: Dry, base ion: M+.)
Reply | 140.47

Ask | Lookup Brc1ccc(Oc2ccc(Br)cc2Br)cc1 [PBDE 28] (APCI source condition: Dry, base ion: M+.)
Reply | 154.31

Ask | Lookup Brc1cc(Br)c(Oc2cc(Br)c(Br)cc2Br)cc1Br [PBDE 153] (APCI source condition: Dry, base ion: M+.)
Reply | 180.67

Ask | Lookup CCCCCCCCCCCCCCCCC(F)(F)C(F)(F)C(F)(F)C(F)(F)C(F)(F)C(F)(F)C(F)(F)C(F)(F)C(F)(F)C(F)(F)C(F)(F)C(F)(F)F [1-(Perfluorododecyl)hexadecane] (APCI source condition: Dry, base ion: [M-H]+)
Reply | 256.66

Ask | Lookup Clc1cc(Cl)c(Cl)c(Cl)c1Cl [Pentachlorobenzene] (APCI source condition: Dry, base ion: M+.)
Reply | 135.24

Ask | Lookup c1ccc2c(c1)-c1cccc3cccc-2c13 [Fluoranthene] (APCI source condition: Dry, base ion: M+.)
Reply | 138.02

Ask | Lookup Clc1ccc(-c2cc(Cl)c(Cl)c(Cl)c2Cl)c(Cl)c1Cl [PCB 170] (APCI source condition: Dry, base ion: M+.)
Reply | 165.18

Ask | Lookup ClC1=C(Cl)C2(Cl)[C@H]3[C@@H]4O[C@@H]4[C@H](Cl)[C@H]3C1(Cl)C2(Cl)Cl (stereo partly drawn) [Heptachlor-exo-epoxide] (APCI source condition: Dry, base ion: [M-H]+)
Reply | 151.86

Ask | Lookup Clc1cc(Cl)c(-c2c(Cl)ccc(Cl)c2Cl)cc1Cl [PCB 149] (APCI source condition: Dry, base ion: M+.)
Reply | 158.29

Ask | Lookup c1cc2ccc3ccc4ccc5cccc6c(c1)c2c3c4c56 [Benzo(g,h,i)perylene] (APCI source condition: Dry, base ion: M+.)
Reply | 150.71

Ask | Lookup Clc1cc(Cl)c(-c2ccc(Cl)c(Cl)c2Cl)cc1Cl [PCB 138] (APCI source condition: Dry, base ion: M+.)
Reply | 159.68

----------
# measurement description: collision cross section (N2, base ion); higher = larger ion cross section
Task for the reader: assign each of the following compounds its reported collision cross section.
Write the value in Å² as a bare number.

Ask | Look up collision cross section for this compound: O=P(Oc1ccccc1)(Oc1ccccc1)Oc1ccccc1 [Triphenylphosphate] (APCI source condition: Wet, base ion: [M+H]+)
Reply | 168.91

Ask | Lookup ClC(Cl)=C(c1ccc(Cl)cc1)c1ccccc1Cl [2,4'-DDE] (APCI source condition: Dry, base ion: M+.)
Reply | 154.54

Ask | Lookup C=CCOc1c(Br)cc(Br)cc1Br [1,3,5-Tribromo-2-prop-2-enoxybenzene] (APCI source condition: Dry, base ion: [M-Br]+)
Reply | 136.27

Ask | Lookup c1ccc2c(c1)sc1ccccc12 [Dibenzothiophene] (APCI source condition: Dry, base ion: M+.)
Reply | 137.55

Ask | Lookup Clc1cc(-c2ccccc2)c(Cl)c(Cl)c1Cl [PCB 61] (APCI source condition: Dry, base ion: M+.)
Reply | 148.05

Ask | Lookup Brc1cc(Br)c(OCCOc2c(Br)cc(Br)cc2Br)c(Br)c1 [1,2-Bis(2,4,6-tribromophenoxy)ethane] (APCI source condition: Dry, base ion: M+.)
Reply | 186.57

----------
# measurement description: GC retention time (DB-5MS, GC-APCI); higher = later elution
reported metric: GC retention time
Please state the number and follow it with the unit.

Ask | Look up GC retention time for this compound: ClC(Cl)=C(c1ccc(Cl)cc1)c1ccccc1Cl [2,4'-DDE] (APCI source condition: Dry, base ion: M+.)
Reply | 18.7 min

Ask | Lookup Brc1ccc(Oc2cc(Br)ccc2Br)c(Br)c1 [PBDE 49] (APCI source condition: Dry, base ion: M+.)
Reply | 21.8 min

Ask | Lookup Cl[C@H]1[C@H](Cl)[C@@H](Cl)[C@H](Cl)[C@@H](Cl)[C@@H]1Cl [β-Hexachlorocyclohexane] (APCI source condition: Dry, base ion: [M-H2Cl3]+)
Reply | 15.1 min

Ask | Lookup Clc1cc(Cl)c(Cl)c(Cl)c1Cl [Pentachlorobenzene] (APCI source condition: Dry, base ion: M+.)
Reply | 12.4 min

Ask | Lookup CCCCC(CC)COC(=O)c1c(Br)c(Br)c(Br)c(Br)c1C(=O)OCC(CC)CCCC (configuration not stated) [Bis(2-ethylhexyl) tetrabromophthalate] (APCI source condition: Dry, base ion: C8HBr4O3+)
Reply | 30.1 min

Ask | Lookup Clc1ccc(-c2ccc(Cl)c(Cl)c2Cl)c(Cl)c1Cl [PCB 128] (APCI source condition: Dry, base ion: M+.)
Reply | 21.3 min

Ask | Lookup Brc1cc(Br)c(Oc2cc(Br)c(Br)cc2Br)cc1Br [PBDE 153] (APCI source condition: Dry, base ion: M+.)
Reply | 26 min

Ask | Lookup Clc1ccc(C(c2ccccc2Cl)C(Cl)(Cl)Cl)cc1 (configuration not stated) [2,4'-DDT] (APCI source condition: Dry, base ion: [M-CCl3]+)
Reply | 20.2 min

Ask | Lookup c1cc2cccc3c4cccc5cccc(c(c1)c23)c54 [Perylene] (APCI source condition: Dry, base ion: M+.)
Reply | 25 min

Ask | Lookup CCCCCCOP(=O)(OCCCCCC)OCCCCCC [Trihexyl phosphate] (APCI source condition: Wet, base ion: [M+H]+)
Reply | 19.4 min

Ask | Lookup CC(CCl)OP(=O)(OC(C)CCl)OC(C)CCl (configuration not stated) [Tris(1-chloro-2-propyl)phosphate] (APCI source condition: Wet, base ion: [M-C3H4Cl]+)
Reply | 15.4 min

Ask | Lookup Clc1cccc(-c2cccc(Cl)c2Cl)c1 [PCB 20] (APCI source condition: Dry, base ion: M+.)
Reply | 16.6 min

----------
# measurement description: GC retention time (DB-5MS, GC-APCI); higher = later elution
reported metric: GC retention time (min)
Write the value in min as a bare number.

Ask | Look up GC retention time for this compound: Clc1ccc(Cl)c(-c2c(Cl)cccc2Cl)c1 [PCB 53] (APCI source condition: Dry, base ion: M+.)
Reply | 16.6

Ask | Lookup Brc1cc(Br)c(Oc2cc(Br)c(Br)c(Br)c2Br)c(Br)c1 [PBDE 182] (APCI source condition: Dry, base ion: M+.)
Reply | 28.4

Ask | Lookup Brc1cc(Oc2c(Br)cc(Br)c(Br)c2Br)cc(Br)c1Br [PBDE 191] (APCI source condition: Dry, base ion: M+.)
Reply | 29

Ask | Lookup Clc1ccc(-c2ccc(Cl)cc2Cl)cc1 [PCB 28] (APCI source condition: Dry, base ion: M+.)
Reply | 16.4

Ask | Lookup Brc1ccc(Oc2ccc(Br)c(Br)c2)cc1Br [PBDE 77] (APCI source condition: Dry, base ion: M+.)
Reply | 23

Ask | Lookup c1ccc2cc3ccccc3cc2c1 [Anthracene] (APCI source condition: Dry, base ion: M+.)
Reply | 15.7

Ask | Lookup CCCCCCCCCCCCCCCCC(F)(F)C(F)(F)C(F)(F)C(F)(F)C(F)(F)C(F)(F)C(F)(F)C(F)(F)C(F)(F)C(F)(F)C(F)(F)C(F)(F)F [1-(Perfluorododecyl)hexadecane] (APCI source condition: Dry, base ion: [M-H]+)
Reply | 18.4

Ask | Lookup Brc1cc(Br)c(Oc2c(Br)cc(Br)c(Br)c2Br)c(Br)c1 [PBDE 184] (APCI source condition: Dry, base ion: M+.)
Reply | 27.8

Ask | Lookup CCCCCCCCCCCCCCCCC(F)(F)C(F)(F)C(F)(F)C(F)(F)C(F)(F)C(F)(F)C(F)(F)C(F)(F)F [1-(Perfluoro-n-octyl)hexadecane] (APCI source condition: Dry, base ion: [M-H]+)
Reply | 16.8

Ask | Lookup c1ccc2c(c1)-c1cccc3c1c-2cc1ccccc13 [Benzo(b)fluoranthene] (APCI source condition: Dry, base ion: M+.)
Reply | 24.2

Ask | Lookup CCCCC(CC)COP(=O)(OCC(CC)CCCC)OCC(CC)CCCC (configuration not stated) [Tris(2-ethylhexyl) phosphate] (APCI source condition: Wet, base ion: [M+H]+)
Reply | 21.5

Ask | Lookup Brc1cc(Br)c(Br)c(Br)c1Br [Pentabromobenzene] (APCI source condition: Dry, base ion: M+.)
Reply | 18.5
